Attribution: the supplement of paper PMC8728848

- assayed_target: GlcNAc(b1-2)[GlcNAc(b1-4)]Man(a1-3)[GlcNAc(b1-2)Man(a1-6)]Man(b1-4)GlcNAc(b1-4)GlcNAc
- test_name: glycan array binding signal (z-score within array); higher = stronger binding
- condition_label: glycan notation: IUPAC condensed, linker removed
The full list was thinned out, with the strongest signals kept by preference.
Each entry below lists one item and its recorded glycan array binding signal (z-score) value.

[
  {
    "binder": "cFel (Cyprinus carpio), P68512 (protein) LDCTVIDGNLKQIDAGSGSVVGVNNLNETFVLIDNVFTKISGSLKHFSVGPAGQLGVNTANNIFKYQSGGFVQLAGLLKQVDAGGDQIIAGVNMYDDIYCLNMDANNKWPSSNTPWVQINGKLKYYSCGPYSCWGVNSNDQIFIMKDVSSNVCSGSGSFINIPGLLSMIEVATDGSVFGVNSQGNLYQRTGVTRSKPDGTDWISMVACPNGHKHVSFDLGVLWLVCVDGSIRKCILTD",
    "glycan array binding signal (z-score)": -0.869
  },
  {
    "binder": "Gal 9 (Homo sapiens), O00182 (protein) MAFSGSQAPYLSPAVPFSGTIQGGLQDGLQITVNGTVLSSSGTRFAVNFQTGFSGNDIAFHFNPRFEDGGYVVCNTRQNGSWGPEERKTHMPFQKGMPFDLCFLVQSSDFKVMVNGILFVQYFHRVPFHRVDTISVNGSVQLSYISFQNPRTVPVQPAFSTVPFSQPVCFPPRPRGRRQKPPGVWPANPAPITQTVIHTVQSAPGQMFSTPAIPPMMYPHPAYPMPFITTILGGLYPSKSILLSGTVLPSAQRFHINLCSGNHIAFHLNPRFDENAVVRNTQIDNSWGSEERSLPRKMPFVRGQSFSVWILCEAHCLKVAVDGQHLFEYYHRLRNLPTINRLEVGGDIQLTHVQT",
    "glycan array binding signal (z-score)": -0.323
  }
]
